System: A498 renal
protocol.text: NCI-60 one-dose screen, 48 h
conditions.used: 10 µM
Compounds without any hit were thinned out: in the full panel of roughly 83,000, 20% have a hit. The source made the active and inactive calls. How the source made its calls: active means growth percent below 10; inactive means the rest.
Your response should consist of one outcome taken from true for active, false for inactive

Study these solved cases before continuing.
| compound | classification |
| --- | --- |
| O=C(Nc1ccncc1F)c1cn(CC2CC2)c2ccccc12 | false |
| CC[C@H](C)[C@H](NC(=O)[C@H]1CCCCN1C)C(=O)N(C)[C@H](CCc1nc(C(=O)N[C@@H](Cc2ccccc2)C[C@H](C)C(=O)OC)cs1)C(C)C | true |
| Cc1c2cc(Cl)c3ccccc3c2c[n+]2ccccc12 | false |

Per the assay record, what outcome was assigned to COc1ccc2c(c1)c(-c1nc(-c3c[nH]c4ncccc34)cs1)cn2CCN1CCOCC1 ?
false

Cool, now CCCCCCCCCCCCNC(c1ccccc1)C(O)c1ccccc1 (stereo not given)
false

Can you check O=C(N/N=C\c1ccc(N(CCCl)CCCl)cc1Cl)c1cccnc1 next?
true

---

Measured growth by item
Test system: SK-MEL-2 melanoma
protocol.text: NCI-60 one-dose screen, 48 h (100 = growth as untreated, 0 = no growth, -100 = all killed)
conditions.used: 10 µM unless noted
This is part of a sample that, as a whole, favours compounds with a hit. Of some 83,000 tested, about 20% had one in any assay.
Respond numerically; units are % and should not be typed.

Before answering, review these 5 worked examples.
| molecule | measured.on | unit.info | growth |
| --- | --- | --- | --- |
| Cn1cc(-c2csc(-c3cn(CCN4CCOCC4)c4ccc(F)cc34)n2)c2cccnc21 | SK-MEL-2 melanoma | % | 15.8 |
| Nc1c(F)cc(-c2nc3cc(F)ccc3[se]2)cc1F | SK-MEL-2 melanoma | % | 107 |
| O=C(O)C(O)C(O)C1[O][Sb]([c]2ccc([N+](=O)[O-])cc2)[O]C1CO (stereo unspecified) | SK-MEL-2 melanoma | % | 115 |
| C[C@]12CCc3sc(-c4ccccc4O)nc3C1=CC[C@@H]1[C@@H]2CC[C@]2(C)C(=O)CC[C@@H]12 | SK-MEL-2 melanoma | % | 105 |
| Nc1ccc(OCCNS(=O)(=O)c2cccc(S(=O)(=O)F)c2)c(Cl)c1 | SK-MEL-2 melanoma | % | 88.9 |

In the following, a different molecule is considered.
# value lookup — system SK-MEL-2 melanoma, readout growth, item O=[As](O)(O)c1ccccc1[As](=O)(O)O
119

---

System: ACHN renal
protocol.text: NCI-60 one-dose screen, 48 h (100 = growth as untreated, 0 = no growth, -100 = all killed)
conditions.used: 10 µM unless noted
About 83,000 compounds went through this panel and 20% of them were active in at least one assay; those are over-represented in the sample as a whole.
Catalogue of compounds with associated growth
Respond numerically; units are % and should not be typed.

| compound | measured.on | assay.result |
| --- | --- | --- |
| CN[C@]1(c2ccccc2Cl)CCCC[C@H]1NCCCN1CCN(C)CC1 | ACHN renal | 108 |
| NC(=O)C(Br)c1ccccc1 (stereo unspecified) | ACHN renal | 87.2 |
| CO[C@H]1CC[C@@]2(C)C(=CC[C@@H]3[C@@H]2CC[C@]2(C)C(=O)C(=O)C[C@@H]32)C1 | ACHN renal | 102 |
| CC(=O)O[C@@H]1CC[C@]2(C)[C@H]3CC[C@]4(C)C(=O)CC[C@H]4[C@@H]3C[C@@H]3SC(N)=N[C@@]32C1 | ACHN renal | 93.7 |
| Nc1nc([Se])c2ncn(C3OC(CO)C(O)C3O)c2n1 (stereo unspecified) | ACHN renal | 84.3 |
| COc1cccc2c1c(C(=O)C(=O)Nc1ccn[nH]1)cn2Cc1ccc(F)cc1 | ACHN renal | 101 |
| Oc1c(CCl)cc(Cl)cc1CCl | ACHN renal | 106 |
| COc1cccc(C=NC(Cc2cnc[nH]2)C(=O)O)c1O (stereo unspecified) | ACHN renal | 97.8 |
| O=C([O][Hg][CH2]C1COCC([CH2][Hg][O]C(=O)c2ccccc2)O1)c1ccccc1 (stereo unspecified) | ACHN renal | 70.6 |
| Cc1ccc(S(=O)(=O)C(Cl)(Cl)Cl)cc1 | ACHN renal | 105 |

Consider now this further compound.
GET /values?readout=growth&item= C[C@]12CC[C@@H]3c4ccc(Oc5nc(N6CC6)nc(N6CC6)n5)cc4CC[C@H]3[C@@H]1CCC2=O
16.3

---

System: SK-MEL-5 melanoma
protocol.text: NCI-60 one-dose screen, 48 h (100 = growth as untreated, 0 = no growth, -100 = all killed)
conditions.used: 10 µM unless noted
About 83,000 compounds went through this panel and 20% of them were active in at least one assay; those are over-represented in the sample as a whole.
value.kind: growth (%)
Please respond with the number in % and leave the unit unwritten.

The examples below pair each entry with its known result.
| mol.smiles | value.kind | assay.result |
| --- | --- | --- |
| O=C1NC(=O)C(=Cc2cccn2CCCCCn2c3ccccc3c(=O)c3ccccc32)C(=O)N1 | growth | 98.6 |
| [Cl][Hg][c]1cc(Br)cc(Br)c1 | growth | 22.1 |
| CC(=O)O[C@H](C[C@H](C(C)C)N(C)C(=O)[C@@H](NC(=O)[C@H]1CCCCN1C)C(C)(C)C)c1nc(C(=O)N[C@@H](Cc2ccccc2)C[C@H](C)C(=O)O)cs1 | growth | -50.6 |
| COC(=O)[C@@H](C)C[C@H](Cc1ccccc1)NC(=O)c1csc([C@@H](C[C@H](C(C)C)N(C)C(=O)C2(NC(=O)[C@H]3CCCCN3C)CC2)OC(C)=O)n1 | growth | -40.2 |

Given the molecule CCCCCCC(=O)NC1=C(N2CC2)C(=O)C(NC(=O)CCCCCC)=C(N2CC2)C1=O , what is its reported growth?
52.4

---

System: SNB-19 CNS
protocol.text: NCI-60 one-dose screen, 48 h
conditions.used: 10 µM unless noted
Experimental: Growth inhibition of the SNB-19 human tumor cell line is measured as a screen for anti-cancer activity. Cells are grown in 96 well plates and exposed to the test compound for 48 hours. Compounds are tested at a single concentration, which is 10^-5 M for most compounds. The reported endpoint is percent growth (GI% or GIPRCNT), where numbers from 0 - 100% represent growth inhibition, and numbers from -100% - 0 represent cell death. For example, a value of 40 represents 60% growth inhibition. […]
The panel holds about 83,000 compounds, 20% with a hit somewhere; the sample as a whole holds those more often. Activity calls are given as the source filed them. The calls were made as follows: active = growth percent below 10; inactive = the rest.
Mark one answer only. Choices: active, inactive

| compound | classification |
| --- | --- |
| O=C(CC1(O)C(=O)N(Cc2ccccc2)c2ccccc21)c1ccc(C(=O)NCC2CCC3(CC2)OOC2(CCCCC2)OO3)cc1 (configuration not stated) | inactive |
| c1cnc2[nH]cc(-c3csc(-c4cn(CCCCN5CCOCC5)c5ccccc45)n3)c2c1 | inactive |
| C[Se]C(=O)c1ccccc1OC(C)=O | inactive |
| CN[C@@]1(c2ccccc2Cl)CCCC[C@@H]1NCC1CCCO1 (some centres not stated) | inactive |
| c1cnc2[nH]cc(-c3csc(-c4cn(CCCCN5CCCCC5)c5ccccc45)n3)c2c1 | inactive |

Entry CN1CCC(O)(c2ccc(F)cc2)C(C(=O)c2ccc(F)cc2)C1 (configuration not stated) : call = ?
inactive

---

Measured growth, listed per entry.
Test system: HOP-92 NSCLC
protocol.text: NCI-60 one-dose screen, 48 h (100 = growth as untreated, 0 = no growth, -100 = all killed)
conditions.used: 10 µM unless noted
The panel holds about 83,000 compounds, 20% with a hit somewhere; the sample as a whole holds those more often.
Answer format: numeric, % implied, no suffix.

Some solved entries appear below for comparison.
| compound | unit.info | growth |
| --- | --- | --- |
| Cn1cc(C2=C(c3cn(C4CCN(Cc5ccccn5)CC4)c4ccccc34)C(=O)NC2=O)c2ccccc21 | % | 69.8 |
| COc1cc(C=Nc2cc(Cl)cc(Cl)c2)ccc1N(CCCl)CCCl | % | 77.3 |
| COC(=O)[C@H](Cc1c[nH]c2ccccc12)NC(=O)[C@@H](OC)[C@@H]1Cc2cc3cc(OC4CC(OC5CC(O)C(O)C(C)O5)C(O)C(C)O4)c(C)c(O)c3c(O)c2C(=O)[C@H]1OC1CC(OC2CC(OC3CC(C)(O)C(O)C(C)O3)C(O)C(C)O2)C(O)C(C)O1 (some centres undefined) | % | -13.9 |

Let's switch to this compound now.
Data request, read-out growth, for COc1ccc(Nc2ccnc3cc(Cl)ccc23)cc1CN(CCCl)CCCl
-39

---

System: SF-268 CNS
protocol.text: NCI-60 one-dose screen, 48 h (100 = growth as untreated, 0 = no growth, -100 = all killed)
conditions.used: 10 µM unless noted
Compounds without any hit were thinned out: in the full panel of roughly 83,000, 20% have a hit.
value.kind: growth (%)
Form entry: value (%) — number only.

Solved cases (2 shown):
| compound | measured.on | growth / % |
| --- | --- | --- |
| CC1CN1CCCCN1CC1C (stereo not drawn) | SF-268 CNS | 98.6 |
| [Cl][Hg][c]1cc(Br)cc(Br)c1 | SF-268 CNS | 25.6 |

Now let's try a different one.
I have this compound here, COc1ccc(/C=C/c2cc(OC)c(OC)c(OC)c2)cc1NC(=O)/C=C/c1ccc(F)cc1 , and I need its recorded growth.
45.2

The reported numbers originate from PubChem BioAssay (NCI).
